Would you kindly list Inhibition for each of these molecules?
# Test system: HepG2
# Assay text: GSK_TCMDC: Percent inhibition of human HepG2 cell line. Test compounds present at 10uM.
# Format: functional
Numbers only, in %.

Below, 3 molecules whose answers are already recorded.
INSERT INTO results (molecule, system_tested, measured_endpoint, assay_value) VALUES
  ('COc1ccc(-c2c(C(F)(F)F)nn(C)c2NC(=O)Nc2ccc(F)cc2F)cc1', 'HepG2', 'Inhibition', 8),
  ('C=CCN(c1nc(NC)nc(NCc2c(OC)cccc2OC)n1)C1CCCC1', 'HepG2', 'Inhibition', 18),
  ('O=C(C=Cc1cn(-c2ccccc2)nc1-c1ccccc1)N1CCN(c2ccncc2)CC1', 'HepG2', 'Inhibition', 11);

# batch size: 2; output Inhibition per entry
1. COc1cc(Nc2nccc(NCC(O)c3ccc(C(F)(F)F)cc3)n2)cc(OC)c1OC (stereo not given)
2. O=C(/C=C/c1ccc(Cl)c(Cl)c1)NCCCCN1CCCN(C(=O)Nc2ccc(C(F)(F)F)cc2)CC1

RESULT:
[45, 35]
